# koff annotations
- experimental target: T1, Histidine-tagged human PD-1 protein (hPD-1-His) (human, UniProt Q15116 25-170, limits assumed)
- T1 construct: Soluble analyte in SPR; not shown: histidine tag
- T1 sequence (Q15116 25-170 limits assumed): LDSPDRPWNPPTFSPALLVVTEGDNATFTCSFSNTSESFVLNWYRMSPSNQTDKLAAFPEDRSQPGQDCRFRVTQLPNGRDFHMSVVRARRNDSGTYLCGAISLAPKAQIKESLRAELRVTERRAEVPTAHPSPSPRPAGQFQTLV
- experiment summary: SPR (Biacore T200), antibody captured on Protein A chip, hPD-1-His analyte, 1:1 fit
State the answer as a number, implicitly in s⁻¹.

{"binder": "3F1-H4K2-IgG4-S228P (antibody, V domains shown, Humanized; human IgG4 constant domains with S228P (EU numbering)) VH: QVQLQQSGAEVAKPGASVKMSCKASGYTFTSYWMHWVKQRPGQGLEWIGYINPSTGYTEYNQKFKDRATLTADKSTSTAYMELSSLTSEDTAVYYCARGVRYYFDYWGQGTLLTVSS VL: DIVMTQSPDSLAVSLGERATMSCKSSQSLLNSRTRKNYLAWYQQKPGQSPKLLIYWASTRESGVPDRFSGSGSGTDFTLTISSVQAEDVAVYYCKQSYNLLTFGQGTKLELK", "readout units": "s⁻¹", "val": 0.00177}

Incoming: Note koff for the binder shown: 3F1-H4K3-IgG4-S228P (antibody, V domains shown, Humanized; human IgG4 constant domains with S228P (EU numbering)) VH: QVQLQQSGAEVAKPGASVKMSCKASGYTFTSYWMHWVKQRPGQGLEWIGYINPSTGYTEYNQKFKDRATLTADKSTSTAYMELSSLTSEDTAVYYCARGVRYYFDYWGQGTLLTVSS VL: DIVMTQSPSSLAVSAGERVTMSCKSSQSLLNSRTRKNYLAWYQQKPGQSPKLLIYWASTRESGVPDRFSGSGSGTDFTLTISSVQAEDVAVYYCKQSYNLLTFGQGTKLELK
Outgoing: 0.00161

Incoming: Note koff for the binder shown: 3F1-H3K2-IgG4-S228P (antibody, V domains shown, Humanized; human IgG4 constant domains with S228P (EU numbering)) VH: QVQLQQSGAEVAKPGASVKMSCKASGYTFTSYWMHWVKQRPGQGLEWIGYINPSTGYTEYNQKFKDRATLTADTSTSTAYMELSSLRSEDTAVYYCARGVRYYFDYWGQGTLLTVSS VL: DIVMTQSPDSLAVSLGERATMSCKSSQSLLNSRTRKNYLAWYQQKPGQSPKLLIYWASTRESGVPDRFSGSGSGTDFTLTISSVQAEDVAVYYCKQSYNLLTFGQGTKLELK
Outgoing: 0.0015

Incoming: Note koff for the binder shown: 1A7-H1K1-IgG4-S228P (antibody, V domains shown, Humanized; human IgG4 constant domains with S228P (EU numbering)) VH: EVQLLESGGGLVQPGGSLRLSCAASGFTFSSYSMSWVRQAPGKRLEWVAHISSGGSSTYYPDTVKGRFTISRDNSKNTLYLQMNSLRAEDTAMYYCTRQFYYGSSFWYFDVWGQGTTVTVSS VL: DNVLTQSPATLSLSPGERATLSCKASQSVDFDGDSYMNWYQQKPGQPPRLLIYAASNLESGIPARFSGSGPGTDFTLTISSLEPEDFATYYCQQSNEDPPTFGGGTKVEIK
Outgoing: 0.00272
